Test system: (R)-2-octanol dehydrogenase
EXPERIMENT_SUMMARY: Residual (R)-2-octanol dehydrogenase activity after treatment with reagents
Assay type: biochemical, Pichia finlandica
ASSAY_SETUP: reagent 1 mM, 30° C. for 30 minutes; enzyme treated without reagents = 100
Measured Residual activity, listed per entry.
Give your result in % as a bare value.

> print(dat)
                                   compound    outcome.measure  reported.measurement
1                  O.O.O.O.O.O.[Cl][Ni][Cl]  Residual activity                   103
2  O=C([O-])CN(CCN(CC(=O)[O-])CC(=O)O)CC(=O)O.[Na+].[Na+]  Residual activity                    81
3  O=S(=O)(F)Cc1ccccc1 [Phenylmethylsulfonyl fluoride]  Residual activity                   111

Input: Lookup: Residual activity / (R)-2-octanol dehydrogenase / `[Cl][Fe][Cl]`
Output: 93

Input: Lookup: Residual activity / (R)-2-octanol dehydrogenase / O[C@H](CS)[C@H](O)CS (racemic)
Output: 123

Input: Lookup: Residual activity / (R)-2-octanol dehydrogenase / `O=S(=O)([O-])[O-].[Cu+2]`
Output: 100

Input: Lookup: Residual activity / (R)-2-octanol dehydrogenase / `O.O.[Ba+2].[Cl-].[Cl-]`
Output: 102

Input: Lookup: Residual activity / (R)-2-octanol dehydrogenase / CCN1C(=O)C=CC1=O [N-ethylmaleimide]
Output: 147

Input: Lookup: Residual activity / (R)-2-octanol dehydrogenase / `c1cnc2c(c1)ccc1cccnc12`
Output: 162

Input: Lookup: Residual activity / (R)-2-octanol dehydrogenase / `[Cl-].[K+]`
Output: 106

Input: Lookup: Residual activity / (R)-2-octanol dehydrogenase / `[Cl-].[Cl-].[Zn+2]`
Output: 96

Input: Lookup: Residual activity / (R)-2-octanol dehydrogenase / `O.O.O.O.O.O.[Cl-].[Cl-].[Co+2]`
Output: 99

These data points were gathered from patent US7202069B2.
